Reference source for all entries: PubChem BioAssay

PROTOCOL_SUMMARY: FRG1 expression reporter modulators in myotubes – cell-based, C2C12 myotubes, firefly/Renilla luciferase, luminescence, FRG1 inhibition for FSHD, primary screen (AID 1084)
CONDITION_INFO: FRG1 promoter luciferase, higher = more signal, called active from +8 up or from −8 down
OBSERVABLE: z-score
Just the number, please, no unit after it.

# return recorded z-score for input CCCC[C@@H]1C[C@H]1[C@@H](NC(=O)c1ccccc1)c1ccc(-c2ccccc2)cc1
-1.76

Give the value of z-score reported for the following: COc1ccc([Si](C)(C)[C@@H]2[C@@H](CCO)O[C@]3(C(=O)N(Cc4ccccc4)c4ccc(N(C=O)c5ccccc5)cc43)[C@H]2C)cc1
-2.04

Give the measured z-score for COCCOC(=O)N1C(=O)[C@@]2(c3cc(C#CCCO)ccc31)[C@H](C(=O)NC[C@H](O)c1ccccc1)[C@H]1C(=O)O[C@H](c3ccccc3)[C@H](c3ccccc3)N1[C@@H]2c1ccc(OCCO)cc1
0.469

Specify measured z-score for CC(C)(C)OC(=O)CC[C@@]1(C(=O)NCC(O)CO)N=C(c2ccc(OCCCO)cc2)O[C@@H]1c1ccccc1 (stereo not given in full) .
1.74

Please give measured z-score of the following entry: COc1cc2c(cc1O)C(c1ccc(CN3CCCC3)cc1)N(Cc1sc3ccccc3c1Cl)CC2 (stereo not given)
0.0314

State, in one line, measured z-score of C#C[C@H]1Oc2ccccc2S(=O)(=O)N2CCC[C@@H]12
-0.316

Note down z-score recorded for O=C(NCC(O)CO)[C@@]1(Cc2ccccc2)N=C(c2ccc(OCCCO)cc2)O[C@H]1c1ccccc1 (stereo not given in full)
-1.89

Give z-score for CC(C)C[C@@H]1NC(=O)[C@@H]2C[C@H](C(=O)NCCCCN(C)C)[C@H](c3ccc(O)cc3)N2C1=O
1.92

Give z-score for NC(=O)NCC#Cc1ccc2c(c1)[C@]1(C(=O)N2)[C@H](c2ccc(O)cc2)N2[C@H](c3ccccc3)[C@H](c3ccccc3)OC(=O)[C@H]2[C@@H]1C(=O)N1CCN(c2ncccn2)CC1
-1.09

Give z-score for CCN(CC)c1ccc(N2CC=CC34O[C@@H]5C=CCCOC(=O)C5[C@H]3C(=O)N(CCCO)[C@@H]4C2=O)cc1 (stereo not given in full)
-0.306

Provide one value: measured z-score of CO[C@H]1O[C@H](CO)[C@@H](OC(=O)Nc2ccc3c(c2)OCO3)[C@H](OC(=O)Nc2ccc3c(c2)OCO3)[C@H]1OC(=O)Nc1ccc2c(c1)OCO2
6.05

Quote z-score reported for CCOC(=O)C1=CC[C@@H](c2cccc(Cl)c2)N(S(=O)(=O)c2ccc(C)cc2)[C@H]1c1ccc(C#N)cc1 please.
-0.534

Give the measured z-score for C#C[C@H](O[Si](C#CCCCCCC)(C(C)C)C(C)C)c1ccccc1
0.0077

Please indicate z-score recorded for C[C@H]1C2[C@H](Cc3ccccc3)NC(=O)[C@]23C(=O)N[C@H](Cc2ccccc2)C(=O)N[C@H](Cc2ccccc2)C(=O)NC/C=C/CCC/C=C/C3[C@@H]2O[C@]12C (stereo not given in full)
4.86

Entry C=CC[C@@]1(C(=O)NCc2ccccc2)N=C(c2ccc(OCCCO)cc2)O[C@@H]1c1ccccc1CN=[N+]=[N-] needs its z-score filled in; supply it.
-2.56

Respond only with z-score recorded for CC1CC/C=C\[C@H]2OC34C=CCN(CCN5CCOCC5)C(=O)[C@H]3N(CCCCCO)C(=O)[C@@H]4C2C(=O)O1 (stereo not given in full)
0.209

Indicate its recorded z-score; the compound in question is CCCCC(=O)N(Cc1ccccc1F)[C@@H]1CC(C(=O)NCCO)=C[C@H](Oc2c(I)cc(CO)cc2OC)[C@H]1O
-0.84

Fill in reported z-score for this entry: CC(c1ccccc1)C(O)C1C=CC2C(=O)N(Cc3ccccc3)C(=O)C2N1n1cnnc1 (stereo not given)
-0.0355

Specify measured z-score for COc1ccc([Si](C)(C)[C@@H]2[C@@H](CCn3cc([C@H](O)c4ccccc4)nn3)O[C@]3(C(=O)N(C)c4ccccc43)[C@H]2C)cc1 .
-1.31

Supply measured z-score of O=C1O[C@H](c2ccccc2)[C@H](c2ccccc2)N2[C@H]1[C@@H](C(=O)NC[C@H](O)c1ccccc1)[C@]1(C(=O)Nc3ccc(C#CC4(O)CCCCCC4)cc31)[C@H]2c1ccccc1OCCO in your reply.
-0.369
